molecular target: Human complement C1s enzyme (Homo sapiens, UniProt P09871); construct: purified from human serum, Complement Technology, Inc; experiment: Human C1s enzyme assay; conditions: human complement C1s enzyme 1.16 nM, substrate Z-L-Lys-SBzl, A405; read-out: IC50 (Stars)
Sequence (P09871 438-688 limits assumed): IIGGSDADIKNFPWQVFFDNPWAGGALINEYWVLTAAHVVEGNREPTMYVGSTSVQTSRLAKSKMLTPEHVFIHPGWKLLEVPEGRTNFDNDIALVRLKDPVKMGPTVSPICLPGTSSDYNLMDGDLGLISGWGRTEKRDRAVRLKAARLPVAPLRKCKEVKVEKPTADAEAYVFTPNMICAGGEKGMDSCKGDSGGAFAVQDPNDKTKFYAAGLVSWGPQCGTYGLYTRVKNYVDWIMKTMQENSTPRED
Sequence (P09871 16-437 partner limits assumed): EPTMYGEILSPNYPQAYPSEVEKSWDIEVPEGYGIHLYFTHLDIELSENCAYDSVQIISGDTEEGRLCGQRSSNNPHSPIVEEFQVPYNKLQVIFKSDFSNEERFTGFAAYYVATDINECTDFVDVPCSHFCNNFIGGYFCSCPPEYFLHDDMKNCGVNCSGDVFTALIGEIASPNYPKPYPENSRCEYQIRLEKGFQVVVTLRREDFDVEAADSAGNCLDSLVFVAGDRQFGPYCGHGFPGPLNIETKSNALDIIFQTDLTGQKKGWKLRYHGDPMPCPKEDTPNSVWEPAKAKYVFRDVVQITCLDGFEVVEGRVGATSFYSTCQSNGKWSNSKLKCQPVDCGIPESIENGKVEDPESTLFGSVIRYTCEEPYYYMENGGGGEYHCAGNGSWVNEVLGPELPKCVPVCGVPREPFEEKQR
Each entry below carries its reported IC50.
experimental_endpoint: IC50

molecule="O=C(Cn1c(-c2ccccc2)ncc(NC(=O)C2CCC(c3ccccc3)CC2)c1=O)NCc1cc2cnccc2[nH]1 (stereo not shown) [Compound 254]" system="Human complement C1s enzyme (Homo sapiens, UniProt P09871)" recorded_measurement="< 0.1 µM"
molecule="O=C(Cn1c(-c2ccccc2)ncc(-c2nc3ccc(Oc4ccccc4)cc3[nH]2)c1=O)NCc1cc2cnccc2[nH]1 [Compound 81]" system="Human complement C1s enzyme (Homo sapiens, UniProt P09871)" recorded_measurement="> 1 µM"
molecule="Cc1ncc(N[C@H](C)c2ccc3oc4ccccc4c3c2)c(=O)n1CC(=O)NCc1cc2cnccc2[nH]1 [Compound 378]" system="Human complement C1s enzyme (Homo sapiens, UniProt P09871)" recorded_measurement="> 1 µM"
molecule="O=C(Cn1c(-c2ccccc2)ncc(Br)c1=O)NCc1cc2cnccc2[nH]1 [Compound 71]" system="Human complement C1s enzyme (Homo sapiens, UniProt P09871)" recorded_measurement="0.1 to 1 µM"
molecule="C[C@@H](Nc1ncc(C2=CCCCC2)n(CC(=O)NCc2cc3cnccc3[nH]2)c1=O)c1ccc2oc3ccccc3c2c1 [Compound 427]" system="Human complement C1s enzyme (Homo sapiens, UniProt P09871)" recorded_measurement="< 0.1 µM"
molecule="C[C@@H](Nc1cnc(N2CCCC(O)C2)n(CC(=O)NCc2cc3cnccc3[nH]2)c1=O)c1ccc2oc3ccccc3c2c1 (stereo partly shown) [Compound 370]" system="Human complement C1s enzyme (Homo sapiens, UniProt P09871)" recorded_measurement="0.1 to 1 µM"
molecule="C[C@@H](Nc1cnc(-c2cncs2)n(CC(=O)NCc2cc3cnccc3[nH]2)c1=O)c1ccc2oc3ccccc3c2c1 [Compound 358]" system="Human complement C1s enzyme (Homo sapiens, UniProt P09871)" recorded_measurement="< 0.1 µM"
molecule="O=C(Cn1c(-c2ccc(NC(=O)CO)cc2)ncc(NCc2ccc3oc4ccccc4c3c2)c1=O)NCc1cc2cnccc2[nH]1 [Compound 147]" system="Human complement C1s enzyme (Homo sapiens, UniProt P09871)" recorded_measurement="< 0.1 µM"
molecule="Cc1c(NCCCc2ccccc2)ccc(-c2ccccc2)c1CC(=O)NCc1cc2cnccc2[nH]1 [Compound 85]" system="Human complement C1s enzyme (Homo sapiens, UniProt P09871)" recorded_measurement="> 1 µM"
molecule="C[C@@H](Nc1cnc(-c2cscn2)n(CC(=O)NCc2cc3cnccc3[nH]2)c1=O)c1ccc2oc3ccccc3c2c1 [Compound 339]" system="Human complement C1s enzyme (Homo sapiens, UniProt P09871)" recorded_measurement="< 0.1 µM"
molecule="O=C(Cn1c(N2CCCCC2)cnc(NCc2noc3ccccc23)c1=O)NCc1cc2cnccc2[nH]1 [Compound 480]" system="Human complement C1s enzyme (Homo sapiens, UniProt P09871)" recorded_measurement="< 0.1 µM"
molecule="O=C(Cn1c(-c2ccccc2)ncc(NC(=O)c2csc(-c3cccs3)n2)c1=O)NCc1cc2cnccc2[nH]1 [Compound 227]" system="Human complement C1s enzyme (Homo sapiens, UniProt P09871)" recorded_measurement="< 0.1 µM"
molecule="Nc1cnc(-c2ccccc2)n(CC(=O)NCc2cc3cnccc3[nH]2)c1=O [Compound 317]" system="Human complement C1s enzyme (Homo sapiens, UniProt P09871)" recorded_measurement="< 0.1 µM"
molecule="O=C(Cn1c(-c2ccccc2F)ncc(N[C@H]2CCc3ccccc32)c1=O)NCc1cc2cnccc2[nH]1 [Compound 394]" system="Human complement C1s enzyme (Homo sapiens, UniProt P09871)" recorded_measurement="< 0.1 µM"
molecule="O=C(Cn1cncc(NCc2nnc(-c3ccccc3)s2)c1=O)NCc1cc2cnccc2[nH]1 [Compound 485]" system="Human complement C1s enzyme (Homo sapiens, UniProt P09871)" recorded_measurement="< 0.1 µM"
molecule="O=C(Cn1c(N2CCCCC2)cnc(NCc2nnc(-c3ccccc3)s2)c1=O)NCc1cc2cnccc2[nH]1 [Compound 472]" system="Human complement C1s enzyme (Homo sapiens, UniProt P09871)" recorded_measurement="< 0.1 µM"
molecule="C[C@@H](Nc1cnc(-c2ccc(C3(F)COC3)cc2)n(CC(=O)NCc2cc3cnccc3[nH]2)c1=O)c1ccc2oc3ccccc3c2c1 [Compound 372]" system="Human complement C1s enzyme (Homo sapiens, UniProt P09871)" recorded_measurement="< 0.1 µM"
molecule="O=C(Cn1c(-c2ccccc2)ncc(NC(=O)c2cccc(-c3ncco3)c2)c1=O)NCc1cc2cnccc2[nH]1 [Compound 222]" system="Human complement C1s enzyme (Homo sapiens, UniProt P09871)" recorded_measurement="> 1 µM"
molecule="O=C(Cn1c(N2CCCCC2)ncc(NCc2ccc3oc4ccccc4c3c2)c1=O)NCc1cc2cnccc2[nH]1 [Compound 261]" system="Human complement C1s enzyme (Homo sapiens, UniProt P09871)" recorded_measurement="< 0.1 µM"
molecule="COC[C@H]1CCCN(c2ncc(N[C@H](C)c3ccc4oc5ccccc5c4c3)c(=O)n2CC(=O)NCc2cc3cnccc3[nH]2)C1 [Compound 467]" system="Human complement C1s enzyme (Homo sapiens, UniProt P09871)" recorded_measurement="> 1 µM"
molecule="CC(=O)N1CCN(c2ncc(N[C@H](C)c3ccc4oc5ccccc5c4c3)c(=O)n2CC(=O)NCc2cc3cnccc3[nH]2)CC1 [Compound 466]" system="Human complement C1s enzyme (Homo sapiens, UniProt P09871)" recorded_measurement="< 0.1 µM"
molecule="C[C@@H](Nc1cnc(C2=CCCCC2)n(CC(=O)NCc2cc3cnccc3[nH]2)c1=O)c1ccc2oc3ccccc3c2c1 [Compound 325]" system="Human complement C1s enzyme (Homo sapiens, UniProt P09871)" recorded_measurement="< 0.1 µM"
molecule="O=C(Cn1c(-c2ccccc2)ncc(NC(=O)NCc2ccccc2)c1=O)NCc1cc2cnccc2[nH]1 [Compound 79]" system="Human complement C1s enzyme (Homo sapiens, UniProt P09871)" recorded_measurement="0.1 to 1 µM"
molecule="O=C(Cn1c(-c2ccccc2)ncc(NC(=O)c2cc(-c3ccccc3)cs2)c1=O)NCc1cc2cnccc2[nH]1 [Compound 210]" system="Human complement C1s enzyme (Homo sapiens, UniProt P09871)" recorded_measurement="< 0.1 µM"
molecule="O=C(Cn1c(-c2ccccc2)ncc(NCCCc2cc3ccc2CCc2ccc(cc2)CC3)c1=O)NCc1cc2cnccc2[nH]1 [Compound 113]" system="Human complement C1s enzyme (Homo sapiens, UniProt P09871)" recorded_measurement="< 0.1 µM"
molecule="C[C@@H](NC(=O)Cn1c(-c2ccccc2)cnc(NCCCc2ccccc2)c1=O)c1cc2cnccc2[nH]1 [Compound 12]" system="Human complement C1s enzyme (Homo sapiens, UniProt P09871)" recorded_measurement="0.1 to 1 µM"
molecule="O=C(Cn1c(-c2ccccc2)ncc(NC(=O)c2ccc(-c3ccccc3)s2)c1=O)Nc1nccs1 [Compound 220]" system="Human complement C1s enzyme (Homo sapiens, UniProt P09871)" recorded_measurement="< 0.1 µM"
molecule="O=C(Cn1c(-c2ccccc2)ncc(NCCNC(=O)c2ccc(Oc3ccccc3)cc2)c1=O)NCc1cc2cnccc2[nH]1 [Compound 33]" system="Human complement C1s enzyme (Homo sapiens, UniProt P09871)" recorded_measurement="< 0.1 µM"

src = patent US20260184707A1
